src = patent US12540141B2

target: SARS-CoV-2 3CL-protease (Severe acute respiratory syndrome coronavirus 2, UniProt P0DTD1)
pIC50: −log10 of the molar value.
quantity name: pIC50

// solved cases for pIC50 follow
CN(C(=O)CCN1CCCCC1)[C@@H](CC(C)(C)F)C(=O)N1C[C@]2(C[C@H]1C#N)C(=O)Nc1ccccc12 | > 7.00
CC(C)(C)C[C@H](NC(=O)NC1CCCCC1)C(=O)N1C[C@]2(C[C@H]1C#N)C(=O)Nc1ccccc12 | > 7.00
Cc1cc(C)c2ccc(C(=O)N(C)[C@@H](CC(C)C)C(=O)N3C[C@]4(C[C@H]3C#N)C(=O)Nc3ccccc34)nc2c1O | 6.00 to 7.00
CC(C)C[C@@H](C(=O)N1C[C@]2(C[C@H]1C#N)C(=O)Nc1ccc(-c3ccsc3)cc12)N(C)C(=O)c1cc2c(F)cc(F)cc2[nH]1 | > 7.00
C[C@@H]1COC[C@H](C)N1CCC(=O)N(C)[C@@H](CC(C)(C)F)C(=O)N1C[C@]2(C[C@H]1C#N)C(=O)Nc1ccccc12 | > 7.00
[2H]C([2H])([2H])N(C(=O)c1cn(C2CC2)nn1)[C@@H](Cc1ccc(F)cc1)C(=O)N1C[C@]2(C[C@H]1C#N)C(=O)Nc1ccccc12 | > 7.00
CC(C)C[C@@H](C(=O)N1C[C@]2(C[C@H]1C#N)C(=O)Nc1ccccc12)N(C)C(=O)c1cnc2ccccc2n1 | 6.00 to 7.00
N#C[C@@H]1C[C@@]2(CN1C(=O)[C@H](Cc1ccc(F)cc1)NC(=O)c1cc3c(F)cc(F)cc3[nH]1)C(=O)Nc1ccc(Cl)cc12 | > 7.00
CN(C(=O)CCN1CCCC1)[C@@H](CC(C)(C)F)C(=O)N1C[C@]2(C[C@H]1C#N)C(=O)Nc1ccccc12 | > 7.00
CN(C(=O)[C@H](O)c1ccccc1F)[C@@H](CC1CC1)C(=O)N1C[C@]2(C[C@H]1C#N)C(=O)Nc1ccccc12 | > 7.00

The compound listed as CN(C(=O)c1ccn(CC(F)(F)F)n1)[C@@H](Cc1ccccc1)C(=O)N1C[C@]2(C[C@H]1C#N)C(=O)Nc1ccccc12 has a reported pIC50 of > 7.00

The compound listed as CC(C)C[C@@H](C(=O)N1C[C@]2(C[C@H]1C#N)C(=O)Nc1ccc(C(=O)N3CCOCC3)cc12)N(C)C(=O)c1cc2c(F)cc(F)cc2[nH]1 has a reported pIC50 of > 7.00

The compound listed as CC(C)C[C@@H](C(=O)N1C[C@]2(C[C@H]1C#N)C(=O)Nc1ccccc12)N(C)C(=O)c1ccc(-c2ccccc2)cn1 has a reported pIC50 of 6.00 to 7.00

The compound listed as CC(C)C[C@@H](C(=O)N1C[C@]2(C[C@H]1C#N)C(=O)Nc1ccccc12)N(C)C(=O)CC1CC1 has a reported pIC50 of > 7.00
